Source of measurements: the kinase profiling compilation of Christmann-Franck et al. (2016)

# system_tested: SIK1 (human) (UniProt P57059)
# Sequence (P57059 whole entry, looked up): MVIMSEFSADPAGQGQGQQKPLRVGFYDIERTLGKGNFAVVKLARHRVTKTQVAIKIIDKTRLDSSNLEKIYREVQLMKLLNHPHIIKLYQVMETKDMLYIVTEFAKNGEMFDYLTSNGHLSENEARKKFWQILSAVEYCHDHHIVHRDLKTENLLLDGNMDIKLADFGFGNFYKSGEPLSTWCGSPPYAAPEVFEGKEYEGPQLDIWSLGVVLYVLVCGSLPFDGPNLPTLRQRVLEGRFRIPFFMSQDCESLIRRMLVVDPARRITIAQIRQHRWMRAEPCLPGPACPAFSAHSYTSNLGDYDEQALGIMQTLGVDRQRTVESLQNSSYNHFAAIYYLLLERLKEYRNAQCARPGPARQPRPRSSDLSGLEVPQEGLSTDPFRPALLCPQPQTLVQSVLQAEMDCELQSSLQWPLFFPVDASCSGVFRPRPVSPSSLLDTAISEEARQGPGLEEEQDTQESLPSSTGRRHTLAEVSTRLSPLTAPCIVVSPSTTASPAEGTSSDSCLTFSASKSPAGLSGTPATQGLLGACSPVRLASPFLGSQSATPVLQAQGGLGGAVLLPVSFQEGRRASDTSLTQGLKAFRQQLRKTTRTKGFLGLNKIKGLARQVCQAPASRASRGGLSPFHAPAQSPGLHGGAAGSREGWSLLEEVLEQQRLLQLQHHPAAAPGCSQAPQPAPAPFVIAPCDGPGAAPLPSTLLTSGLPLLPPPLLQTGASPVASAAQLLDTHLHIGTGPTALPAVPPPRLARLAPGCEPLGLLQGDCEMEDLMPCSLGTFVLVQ
# measurement_protocol: Caliper, Mobility shift assay off-chip
# test_conditions: compound 0.2 µM
parameter_measured: inhibition (%)

(a) Cc1ccc(Nc2nccc(N(C)c3ccc4c(C)n(C)nc4c3)n2)cc1S(N)(=O)=O
(b) CNC(=O)c1cc(Oc2ccc(NC(=O)Nc3ccc(Cl)c(C(F)(F)F)c3)cc2)ccn1
(c) COc1cc2c(Oc3ccc4[nH]c(C)cc4c3F)ncnc2cc1OCCCN1CCCC1
(d) CCN(CC)CCNC(=O)c1c(C)[nH]c(/C=C2\C(=O)Nc3ccc(F)cc32)c1C
Exam item: Using the recorded inhibition, list the entries above from smallest to largest. Give the order by naming the labels one after another as requested.
Marked response: c, a, b, d

* * *

# system_tested: EPHA3 (human) (UniProt P29320)
# Sequence (P29320 whole entry, looked up): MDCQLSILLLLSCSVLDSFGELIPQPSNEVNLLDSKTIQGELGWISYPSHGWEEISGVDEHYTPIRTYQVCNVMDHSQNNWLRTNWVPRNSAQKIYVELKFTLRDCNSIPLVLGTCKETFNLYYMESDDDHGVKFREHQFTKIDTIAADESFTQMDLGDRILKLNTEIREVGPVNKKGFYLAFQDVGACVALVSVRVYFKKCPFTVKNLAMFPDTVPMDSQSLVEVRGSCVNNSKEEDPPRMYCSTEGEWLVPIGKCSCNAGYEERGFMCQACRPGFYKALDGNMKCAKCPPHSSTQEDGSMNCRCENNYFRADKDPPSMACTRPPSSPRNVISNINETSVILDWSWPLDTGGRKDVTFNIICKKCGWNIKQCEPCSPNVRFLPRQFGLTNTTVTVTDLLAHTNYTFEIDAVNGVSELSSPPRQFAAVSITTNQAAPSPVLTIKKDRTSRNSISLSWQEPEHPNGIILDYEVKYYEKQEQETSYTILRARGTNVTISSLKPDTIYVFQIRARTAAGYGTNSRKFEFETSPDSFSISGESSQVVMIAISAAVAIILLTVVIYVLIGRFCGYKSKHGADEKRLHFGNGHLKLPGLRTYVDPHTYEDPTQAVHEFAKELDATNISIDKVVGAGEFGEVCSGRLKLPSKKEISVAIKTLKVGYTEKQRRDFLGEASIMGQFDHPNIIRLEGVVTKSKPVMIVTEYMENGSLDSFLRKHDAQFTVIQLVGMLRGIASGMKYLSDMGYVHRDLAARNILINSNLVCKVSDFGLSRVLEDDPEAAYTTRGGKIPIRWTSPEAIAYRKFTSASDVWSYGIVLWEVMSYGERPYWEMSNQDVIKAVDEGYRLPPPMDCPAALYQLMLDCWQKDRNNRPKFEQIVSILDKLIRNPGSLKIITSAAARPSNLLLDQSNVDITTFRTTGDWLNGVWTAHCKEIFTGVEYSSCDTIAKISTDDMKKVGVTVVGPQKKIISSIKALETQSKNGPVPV
# measurement_protocol: Caliper, Mobility shift assay off-chip
# test_conditions: compound 0.2 µM
parameter_measured: inhibition (%)

(I) CCN(CC)CCNC(=O)c1c(C)[nH]c(/C=C2\C(=O)Nc3ccc(F)cc32)c1C
(II) CNC(=O)c1cc(Oc2ccc(NC(=O)Nc3ccc(Cl)c(C(F)(F)F)c3)cc2)ccn1
Exam item: Recorded inhibition values differ for I and II ; which one is higher? Could you answer with the label of the item you picked?
Marked response: II
(II: 17%, I: -0.2%)

(I) COc1cc2c(Oc3ccc4[nH]c(C)cc4c3F)ncnc2cc1OCCCN1CCCC1
(II) Cc1ccc(Nc2nccc(N(C)c3ccc4c(C)n(C)nc4c3)n2)cc1S(N)(=O)=O
Exam item: Recorded inhibition values differ for I and II ; which one is higher? Could you answer with the label of the item you picked?
Marked response: I

* * *

# system_tested: MAP3K3 (human)
# measurement_protocol: ELISA
# test_conditions: compound 0.02 µM
parameter_measured: inhibition (%)

1. COc1cc2c(Oc3ccc4[nH]c(C)cc4c3F)ncnc2cc1OCCCN1CCCC1 1.2

(a) Cc1ccc(Nc2nccc(N(C)c3ccc4c(C)n(C)nc4c3)n2)cc1S(N)(=O)=O
(b) CNC(=O)c1cc(Oc2ccc(NC(=O)Nc3ccc(Cl)c(C(F)(F)F)c3)cc2)ccn1
(c) CNC(=O)c1ccccc1Sc1ccc2c(/C=C/c3ccccn3)n[nH]c2c1
Exam item: Rank the items in ascending order with respect to inhibition. Give the order by naming the labels one after another as requested.
Marked response: b, c, a
(b: -2.1%, c: 0.5%, a: 4.7%)

* * *

# system_tested: AURKC (human) (UniProt Q9UQB9)
# Sequence (Q9UQB9 whole entry, looked up): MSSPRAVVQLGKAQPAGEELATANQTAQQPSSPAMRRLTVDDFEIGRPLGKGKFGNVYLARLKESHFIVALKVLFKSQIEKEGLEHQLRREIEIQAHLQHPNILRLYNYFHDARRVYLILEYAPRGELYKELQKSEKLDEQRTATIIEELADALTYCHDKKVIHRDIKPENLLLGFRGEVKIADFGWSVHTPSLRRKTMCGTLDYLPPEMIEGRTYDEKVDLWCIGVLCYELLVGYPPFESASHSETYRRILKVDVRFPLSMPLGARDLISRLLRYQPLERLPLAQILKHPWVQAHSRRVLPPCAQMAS
# measurement_protocol: Caliper, Mobility shift assay off-chip
# test_conditions: compound 0.2 µM
parameter_measured: inhibition (%)

Known results for compounds:
1. COc1cc2c(Oc3ccc4[nH]c(C)cc4c3F)ncnc2cc1OCCCN1CCCC1 -4
2. CCN(CC)CCNC(=O)c1c(C)[nH]c(/C=C2\C(=O)Nc3ccc(F)cc32)c1C 23.2

(P) Cc1ccc(Nc2nccc(N(C)c3ccc4c(C)n(C)nc4c3)n2)cc1S(N)(=O)=O
(Q) CNC(=O)c1cc(Oc2ccc(NC(=O)Nc3ccc(Cl)c(C(F)(F)F)c3)cc2)ccn1
Exam item: Lab note: check whether P or Q has the lower measured inhibition. Could you answer with the label of the item you picked?
Marked response: Q
(Q: 11.8%, P: 21.5%)

* * *

# system_tested: MST4 (human) (UniProt Q9P289)
# Sequence (Q9P289 whole entry, looked up): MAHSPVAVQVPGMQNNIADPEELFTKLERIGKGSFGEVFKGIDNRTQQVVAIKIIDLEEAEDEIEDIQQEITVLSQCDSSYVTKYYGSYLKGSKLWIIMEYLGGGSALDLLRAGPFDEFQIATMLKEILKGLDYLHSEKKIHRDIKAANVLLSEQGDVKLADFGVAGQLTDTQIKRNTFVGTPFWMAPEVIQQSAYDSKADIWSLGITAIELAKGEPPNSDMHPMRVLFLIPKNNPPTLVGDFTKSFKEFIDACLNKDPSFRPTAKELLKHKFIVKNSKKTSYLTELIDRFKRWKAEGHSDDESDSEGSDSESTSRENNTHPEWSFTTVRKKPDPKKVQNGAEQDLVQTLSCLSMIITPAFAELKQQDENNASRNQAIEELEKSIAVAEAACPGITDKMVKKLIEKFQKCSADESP
# measurement_protocol: Caliper, Mobility shift assay off-chip
# test_conditions: compound 0.2 µM
parameter_measured: inhibition (%)

1) COc1cc2c(Oc3ccc4[nH]c(C)cc4c3F)ncnc2cc1OCCCN1CCCC1 -3

(a) CNC(=O)c1cc(Oc2ccc(NC(=O)Nc3ccc(Cl)c(C(F)(F)F)c3)cc2)ccn1
(b) Cc1ccc(Nc2nccc(N(C)c3ccc4c(C)n(C)nc4c3)n2)cc1S(N)(=O)=O
(c) CCN(CC)CCNC(=O)c1c(C)[nH]c(/C=C2\C(=O)Nc3ccc(F)cc32)c1C
Exam item: # desc sort on inhibition across 3 molecules Give the order by naming the labels one after another as requested.
Marked response: c, a, b
